% PUCCRT Disease level P7 at 4 ppm: recorded values
Tested on: Puccinia recondita
Assay: Use Example 4: preventative control of brown rust on wheat (PUCCRT P7)
Assay type: in vivo
Conditions: inoculated seven days after spraying, 4 ppm, % diseased leaf area
Description: The compound was dissolved in a mixture of acetone and/or dimethylsulfoxide and the wetting agent/emulsifier Wettol, which is based on ethoxylated alkylphenoles, in a ratio (volume) solvent-emulsifier of 99 to 1 to give a total volume of 5 ml. Subsequently, water was added to total volume of 100 ml. This stock solution was then diluted with the described solvent-emulsifier-water mixture to the final concentration given in the tables below. Use Example 4. […]
Numeric only. Scale: %

- CO/C=C(/C(=O)OC)c1cccc(Cl)c1CO/N=C(/C#Cc1ccc(F)cc1)COC: 35
- CNC(=O)/C(=N/OC)c1cccc(Cl)c1CO/N=C(\COC)c1ccc(Cl)c(F)c1: 5
- CCOC/C(=N\OCc1c(Cl)cccc1/C(=C\OC)C(=O)OC)c1ccc(Cl)cc1: 82

[Q] Return the recorded % PUCCRT Disease level P7 at 4 ppm value; entry: COC/C(=N\OCc1c(Cl)cccc1/C(=N\OC)C(=O)OC)c1c(F)cccc1F
[A] 32

Values from patent US20260165323A1
